Target: Clr (Homo sapiens)
Sequence (P00736 464-705 limits assumed): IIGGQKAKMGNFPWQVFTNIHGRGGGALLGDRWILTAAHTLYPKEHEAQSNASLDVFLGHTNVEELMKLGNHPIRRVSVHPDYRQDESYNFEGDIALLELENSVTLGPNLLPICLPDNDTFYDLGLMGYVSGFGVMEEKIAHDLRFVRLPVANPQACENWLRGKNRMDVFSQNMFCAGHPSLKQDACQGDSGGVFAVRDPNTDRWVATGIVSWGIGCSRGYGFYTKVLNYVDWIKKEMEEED
Sequence (P00736 18-463 limits assumed): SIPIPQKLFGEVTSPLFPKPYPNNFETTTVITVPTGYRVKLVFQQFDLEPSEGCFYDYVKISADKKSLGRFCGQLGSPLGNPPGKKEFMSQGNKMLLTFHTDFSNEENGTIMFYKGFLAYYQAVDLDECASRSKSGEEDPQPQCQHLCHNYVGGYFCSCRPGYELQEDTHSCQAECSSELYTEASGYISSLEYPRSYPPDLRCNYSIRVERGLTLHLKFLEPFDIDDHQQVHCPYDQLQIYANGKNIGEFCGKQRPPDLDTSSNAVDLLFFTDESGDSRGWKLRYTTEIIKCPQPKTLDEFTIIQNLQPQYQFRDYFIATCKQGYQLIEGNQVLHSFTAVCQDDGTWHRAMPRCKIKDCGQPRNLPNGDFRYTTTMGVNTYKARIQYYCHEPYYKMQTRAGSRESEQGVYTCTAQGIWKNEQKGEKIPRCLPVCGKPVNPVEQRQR
Entries and their measured pIC50 follow.
In simple prose, pIC50 is minus the logarithm base ten of a concentration in moles per litre.

Here's what some known entries look like.
Request: Quick one: give measured pIC50 for "COC(=O)c1ccc(C(=O)Oc2ccc(C(=N)N)cc2C(=O)c2ccccc2)cc1"
Result: 5.05

Request: Quick one: give measured pIC50 for N=C(N)c1ccc(OC(=O)c2ccccc2)c(Cl)c1 [Compound 26, 4-amidino-2-chlorophenyl benzoate]
Result: 6.70

Request: Quick one: give measured pIC50 for "N=C(N)c1ccc(OC(=O)c2ccc(CN)cc2)c([N+](=O)[O-])c1"
Result: 6.30

Request: Quick one: give measured pIC50 for "CC(=O)Nc1ccc(C(=O)Oc2ccc(C(=N)N)cc2C(=O)c2ccccc2)cc1"
Result: 6.00

---
Request: Quick one: give measured pIC50 for N=C(N)c1ccc(OC(=O)c2ccccc2)c(NC(=O)c2ccccc2)c1 [Compound 30, 4-amidino-2-benzoylaminophenyl benzoate]
Result: 6.05

Request: Quick one: give measured pIC50 for "COc1ccc(C(=O)Oc2ccc(C(=N)N)cc2C(=O)c2ccccc2)cc1"
Result: 6.00

Request: Quick one: give measured pIC50 for "N=C(N)c1ccc(OC(=O)c2ccc(F)cc2)c([N+](=O)[O-])c1"
Result: 6.22

Request: Quick one: give measured pIC50 for "N=C(N)c1ccc(OC(=O)c2ccc(C=O)cc2)c(C(=O)c2ccccc2)c1"
Result: 5.30

Request: Quick one: give measured pIC50 for "COc1cc(C(=N)N)ccc1OC(=O)c1ccc(NC(=N)N)cc1"
Result: 5.40

Request: Quick one: give measured pIC50 for "N=C(N)Nc1ccc(C(=O)Oc2ccc(C(=N)N)cc2[N+](=O)[O-])cc1"
Result: 5.52

Request: Quick one: give measured pIC50 for "CC(C)(C)c1ccc(C(=O)Oc2ccc(C(=N)N)cc2C(=O)c2ccccc2)cc1"
Result: 6.40

Request: Quick one: give measured pIC50 for "N#Cc1ccc(C(=O)Oc2ccc(C(=N)N)cc2C(=O)c2ccccc2)cc1"
Result: 5.05
